# tgt: UniProt P08235
# Sequence (P08235 whole entry): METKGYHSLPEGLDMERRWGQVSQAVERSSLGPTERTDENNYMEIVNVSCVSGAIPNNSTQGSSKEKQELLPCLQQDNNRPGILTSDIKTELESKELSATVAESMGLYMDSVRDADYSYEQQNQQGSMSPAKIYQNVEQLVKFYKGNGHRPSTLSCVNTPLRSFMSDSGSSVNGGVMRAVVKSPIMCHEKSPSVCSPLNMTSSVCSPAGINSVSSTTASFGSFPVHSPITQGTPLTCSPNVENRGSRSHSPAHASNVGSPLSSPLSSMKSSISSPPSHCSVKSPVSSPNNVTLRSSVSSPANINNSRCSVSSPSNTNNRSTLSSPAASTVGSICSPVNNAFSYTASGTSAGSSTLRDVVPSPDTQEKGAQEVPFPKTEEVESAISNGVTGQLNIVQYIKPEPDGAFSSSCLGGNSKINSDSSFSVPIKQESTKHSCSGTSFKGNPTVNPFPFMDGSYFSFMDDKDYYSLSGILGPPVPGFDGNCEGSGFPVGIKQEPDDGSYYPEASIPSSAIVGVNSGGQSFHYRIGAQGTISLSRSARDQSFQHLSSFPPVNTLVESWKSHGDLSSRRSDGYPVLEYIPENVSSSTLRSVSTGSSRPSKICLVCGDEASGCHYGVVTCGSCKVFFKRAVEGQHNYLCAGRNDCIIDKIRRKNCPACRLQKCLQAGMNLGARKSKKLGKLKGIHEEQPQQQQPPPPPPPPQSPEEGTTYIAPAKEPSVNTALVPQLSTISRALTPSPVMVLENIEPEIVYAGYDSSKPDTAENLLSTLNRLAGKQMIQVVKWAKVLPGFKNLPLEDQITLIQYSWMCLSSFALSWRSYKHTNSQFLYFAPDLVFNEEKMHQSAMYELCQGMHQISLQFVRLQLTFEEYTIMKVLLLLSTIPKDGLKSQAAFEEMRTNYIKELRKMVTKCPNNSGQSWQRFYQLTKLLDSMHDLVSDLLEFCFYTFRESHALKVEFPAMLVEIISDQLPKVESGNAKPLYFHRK
# assay_remarks: Displacement of [3H]aldosterone from GST-tagged human mineralocorticoid receptor ligand binding domain after 4 hrs by liquid scintillation counting
pIC50: −log10 of the molar value.
Entry flag: class 1 if pIC50 reaches 6; class 0 if it does not.

Use these answered entries as a reference point.
INSERT INTO measurements (compound_smiles, label) VALUES
  ('Cc1cn(-c2ccc(CNS(=O)(=O)c3cc(F)ccc3F)cc2)c(C)n1', 'class 1'),
  ('Cc1nccn1-c1ccc(CNS(=O)(=O)c2ccccc2F)cc1', 'class 0'),
  ('Cc1cc(C)c(S(=O)(=O)NCc2ccc(-n3ccnc3C)cc2)c(C)c1', 'class 1'),
  ('Cc1nccn1-c1ccc(CNS(=O)(=O)c2ccccc2Cl)cc1', 'class 1'),
  ('Cc1noc(C)c1S(=O)(=O)NCc1ccc(-c2ccccc2)cc1', 'class 1');

Test whether the compound Cc1noc(C)c1S(=O)(=O)NCc1ccc(-n2ccnc2C)cc1 records pIC50 of 6 or higher.
class 0

Reported pIC50 reaches at least 6 for Cc1noc(C)c1S(=O)(=O)NCc1ccc(-c2cccc(C(N)=O)c2)cc1 ?
class 0

Kindly determine if pIC50 recorded for Cc1noc(C)c1S(=O)(=O)NCc1ccc(-c2ccccc2)s1 is above or exactly 6.
class 1

Sourced from ChEMBL document CHEMBL3085697
